Hello, the source for this data is paper PMC9203742, in case you need it.

- target_of_assay: mGlu1 P57H/N264H mutant (Rattus norvegicus, UniProt P23385, N264H/P57H)
- Construct: expressed in transfected cells; host or cells: HEK293
- Sequence (P23385 19-1199 P57H/N264H): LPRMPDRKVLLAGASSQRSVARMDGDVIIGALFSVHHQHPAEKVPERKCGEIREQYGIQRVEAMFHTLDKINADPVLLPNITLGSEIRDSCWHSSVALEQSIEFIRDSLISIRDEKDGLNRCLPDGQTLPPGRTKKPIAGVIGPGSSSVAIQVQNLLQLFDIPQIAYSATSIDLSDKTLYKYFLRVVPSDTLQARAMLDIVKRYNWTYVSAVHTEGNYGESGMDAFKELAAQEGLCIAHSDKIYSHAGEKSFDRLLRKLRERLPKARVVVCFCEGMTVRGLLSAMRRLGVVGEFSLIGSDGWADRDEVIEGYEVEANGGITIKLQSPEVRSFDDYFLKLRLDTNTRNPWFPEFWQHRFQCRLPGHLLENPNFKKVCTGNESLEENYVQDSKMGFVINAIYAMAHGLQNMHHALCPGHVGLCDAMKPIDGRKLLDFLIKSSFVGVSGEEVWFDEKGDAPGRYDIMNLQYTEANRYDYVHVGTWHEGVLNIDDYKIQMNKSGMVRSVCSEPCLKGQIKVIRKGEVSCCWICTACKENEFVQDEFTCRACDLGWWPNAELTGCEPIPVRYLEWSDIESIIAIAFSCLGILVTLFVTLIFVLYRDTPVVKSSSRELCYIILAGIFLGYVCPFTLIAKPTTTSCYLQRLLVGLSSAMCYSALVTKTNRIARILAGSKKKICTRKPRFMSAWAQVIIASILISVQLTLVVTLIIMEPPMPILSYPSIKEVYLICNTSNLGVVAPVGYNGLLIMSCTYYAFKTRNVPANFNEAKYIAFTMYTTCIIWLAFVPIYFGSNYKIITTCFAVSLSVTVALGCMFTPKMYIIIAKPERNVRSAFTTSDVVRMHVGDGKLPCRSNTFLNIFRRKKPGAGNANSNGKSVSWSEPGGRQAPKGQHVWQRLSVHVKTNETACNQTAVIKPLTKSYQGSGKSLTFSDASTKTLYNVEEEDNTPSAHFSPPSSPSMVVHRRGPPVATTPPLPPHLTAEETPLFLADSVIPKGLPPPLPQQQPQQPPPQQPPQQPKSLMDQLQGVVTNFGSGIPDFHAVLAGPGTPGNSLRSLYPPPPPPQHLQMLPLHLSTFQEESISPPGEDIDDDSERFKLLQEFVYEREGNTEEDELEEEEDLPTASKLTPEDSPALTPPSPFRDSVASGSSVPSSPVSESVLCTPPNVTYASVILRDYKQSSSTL
- assay_details: Fura-2 Ca2+ imaging in HEK293 cells expressing mGlu1 P57H/N264H
- Assay type: cell-based
- experimental_context: Fig.1e
# Ca2+ response (delta ratio), P57H/N264H values compiled below
Keep the answer to the number alone.

Using the record for `[Cl][Cd][Cl]` , report its Ca2+ response (delta ratio), P57H/N264H.
0.03091

Using the record for `[Cl][Cu][Cl]` , report its Ca2+ response (delta ratio), P57H/N264H.
0.007634

Using the record for `[Cl-].[Cl-].[Zn+2]` , report its Ca2+ response (delta ratio), P57H/N264H.
-0.002972

Using the record for `[Cl][Ni][Cl]` , report its Ca2+ response (delta ratio), P57H/N264H.
0.01834
